All figures here come from paper PMC6599006.

measurement.target: T1, CT peptide (residues 367–393 of human p53) labeled with FAM at the N-terminus (human, UniProt P04637 367-393, FAM at the N-terminus)
T1 construct: p53, human, residues 367-393 (C-terminal domain); also called CT peptide of p53; monomeric CT domain of p53; source: synthetic peptide, without caps, at least 95% purity (Toray Research Center Inc.)
T1 sequence (P04637 367-393): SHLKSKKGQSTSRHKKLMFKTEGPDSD
test.protocol: fluorescence polarisation; fluorescence anisotropy; nonlabeled peptide titrated into 5 nM FAM-labeled CT peptide; 25 °C; 20 mM HEPES, 0.5 mM EDTA, 1 mM DTT, 0.2 mg/mL BSA, pH 7.9; in the absence of salt; apparent dissociation constant, one by one binding fit
assay.context: both partners purified
Answer each item with its documented pKd.
Recall that pKd is obtained by taking minus log10 of the concentration measured in molar.

stdin: Fill in: pKd of EDEEGNDSDEHEE (designed with the Miyazawa-Jernigan potential, one by one residue design, 13 residues; also called designed peptide DP2; source: synthetic peptide, without caps, at least 95% purity (Toray Research Center Inc.)) [DP2] is ___
stdout: 4.64

stdin: Fill in: pKd of DEHEEIFMESKGWRDR (designed with the Miyazawa-Jernigan potential, one by one residue design, 16 residues; also called designed peptide DP3; source: synthetic peptide, without caps, at least 95% purity (Toray Research Center Inc.)) [DP3] is ___
stdout: 3.26

stdin: Fill in: pKd of EEEEDNNDDDEEE (designed with the Miyazawa-Jernigan potential, one by three residue design, 13 residues; also called designed peptide DP5; source: synthetic peptide, without caps, at least 95% purity (Toray Research Center Inc.)) [DP5] is ___
stdout: 5.49

stdin: Fill in: pKd of DHIEDEEGNDSDEHEE (designed with the Miyazawa-Jernigan potential, one by one residue design, 16 residues; also called designed peptide DP4; source: synthetic peptide, without caps, at least 95% purity (Toray Research Center Inc.)) [DP4] is ___
stdout: 5.05

stdin: Fill in: pKd of EHEEIFMESKGWR (designed with the Miyazawa-Jernigan potential, one by one residue design, 13 residues; also called designed peptide DP1; source: synthetic peptide, without caps, at least 95% purity (Toray Research Center Inc.)) [DP1] is ___
stdout: 4.22

stdin: Fill in: pKd of EEEEEDNNDDDEEEWF (designed with the Miyazawa-Jernigan potential, one by three residue design, 16 residues; designed target is residues 369-384 of p53; also called designed peptide DP6; source: synthetic peptide, without caps, at least 95% purity (Toray Research Center Inc.)) [DP6] is ___
stdout: 5.92
